- tested system: Sigma-2 receptor (S2R) (Homo sapiens (Human), UniProt Q5BJF2)
- Sequence (Q5BJF2 whole entry, species assumed): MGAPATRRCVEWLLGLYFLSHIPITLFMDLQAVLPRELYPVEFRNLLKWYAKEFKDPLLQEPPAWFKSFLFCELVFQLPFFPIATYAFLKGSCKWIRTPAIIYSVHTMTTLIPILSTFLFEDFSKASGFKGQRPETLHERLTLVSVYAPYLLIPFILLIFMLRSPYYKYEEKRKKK
pKi: −log10 of the molar value.

# smiles string, tested system, pKi
measured = [
    ("CCCN1CCC(c2cccc(S(C)(=O)=O)c2)CC1", "Sigma-2 receptor (S2R) (Homo sapiens (Human), UniProt Q5BJF2)", 5.26),
]

* * *

- tested system: Sigma-1 Receptor (S1R) (Homo sapiens (Human), UniProt Q99720)
- Sequence (Q99720 whole entry, species assumed): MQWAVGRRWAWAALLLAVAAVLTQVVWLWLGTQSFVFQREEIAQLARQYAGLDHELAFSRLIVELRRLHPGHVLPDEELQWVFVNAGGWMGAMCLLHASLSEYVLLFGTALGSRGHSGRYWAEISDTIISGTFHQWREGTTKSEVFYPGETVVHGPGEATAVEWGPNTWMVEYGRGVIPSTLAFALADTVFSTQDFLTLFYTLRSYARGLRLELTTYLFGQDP
pKi: −log10 of the molar value.

# smiles string, pKi
data = [
    ("CCCN1CCC(c2cccc(S(C)(=O)=O)c2)CC1", 7.24),
]

Where do these numbers come from? They come from patent US20230390272A1.
